Target: soluble epoxide hydrolase (sEH) (Homo sapiens, UniProt P34913)
Sequence (P34913 whole entry): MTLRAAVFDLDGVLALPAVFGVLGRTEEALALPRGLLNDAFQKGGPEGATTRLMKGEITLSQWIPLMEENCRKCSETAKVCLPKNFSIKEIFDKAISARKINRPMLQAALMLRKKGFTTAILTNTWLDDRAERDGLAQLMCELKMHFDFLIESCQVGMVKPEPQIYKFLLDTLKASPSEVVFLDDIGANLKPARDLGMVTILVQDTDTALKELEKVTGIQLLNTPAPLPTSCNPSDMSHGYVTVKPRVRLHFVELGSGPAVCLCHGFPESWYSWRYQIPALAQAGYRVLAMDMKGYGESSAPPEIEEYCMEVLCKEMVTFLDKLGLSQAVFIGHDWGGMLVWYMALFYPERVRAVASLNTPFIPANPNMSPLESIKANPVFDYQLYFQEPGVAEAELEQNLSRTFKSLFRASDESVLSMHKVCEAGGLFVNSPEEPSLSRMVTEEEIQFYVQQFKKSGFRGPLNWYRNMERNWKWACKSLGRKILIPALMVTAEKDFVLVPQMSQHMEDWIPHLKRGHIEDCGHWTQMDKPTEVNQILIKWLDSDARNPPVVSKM
Assay: PHOME assay activity test, sEH enzyme inhibition (fluorescence)
Assay type: biochemical
Conditions: PHOME 5 μM, pH 7.0; 10 min pre-incubation; test compound concentration range 20 nM-0.082 nM
Experimental: This example relates to the relationship between the structure and activity of (hetero)aryl imidazole compounds containing an aromatic substituent. Specifically, the biochemical activity of the (hetero)aryl imidazole compounds containing an aromatic substituent described herein as sEH enzyme inhibitors was evaluated by PHOME assay activity test experiment. […]
Could you please report measured pIC50 for the items listed next?
Give bare numbers, as −log10 of the molar value.

// solved cases for pIC50 follow
{"columns": ["compound", "pIC50"],
 "data": [
  ["Nc1ncc(-c2cc3[nH]c(-c4ccc5c(c4)OC(F)(F)O5)nc3c(F)c2F)c(C(F)F)n1 [Compound 89]", 9.46],
  ["Cc1nc(N)ncc1-c1nc2[nH]c(-c3ccc(C(F)(F)F)cc3)nc2cc1F [Compound 102]", 8.84],
  ["Cc1cc(N)nnc1-c1cc2[nH]c(-c3ccc(C(F)(F)F)cc3)nc2c(F)c1F [Compound 103]", 9.44],
  ["Nc1ncc(-c2cc3[nH]c(-c4cccc(C(F)(F)F)c4)nc3c(F)c2F)c(C(F)F)n1 [Compound 80]", 9.19],
  ["CC(=O)N1CCN(Cc2ncc(-c3cc4[nH]c(-c5ccc(C(F)(F)F)cc5)nc4c(F)c3F)c(C)n2)CC1 [Compound 98]", 9.96],
  ["Cc1nc(N2CC(C(=O)O)C2)ncc1-c1cc2[nH]c(-c3ccc(C(F)(F)F)cc3)nc2c(F)c1F [Compound 96]", 9.85],
  ["Fc1c(-c2cnc(NC3COC3)nc2C(F)F)cc2[nH]c(-c3ccc(C(F)(F)F)cc3)nc2c1F [Compound 91]", 9.21],
  ["Cc1nc(N)ncc1-c1cc2[nH]c(-c3ccc(C(F)(F)F)cn3)nc2c(F)c1F [Compound 101]", 9.46]
]}

Report pIC50 for every entry below.
1. COCCNc1ncc(-c2cc3[nH]c(-c4ccc(C(F)(F)F)cc4)nc3c(F)c2F)c(C(F)F)n1 [Compound 88]
2. Nc1ncc(-c2cc3[nH]c(-c4ccc(F)c(OC(F)(F)F)c4)nc3c(F)c2F)c(C(F)F)n1 [Compound 94]
3. Cc1nc(N)ncc1-c1cc2[nH]c(-c3ccc4oc(=O)n(C)c4c3)nc2c(F)c1F [Compound 100]
4. Nc1ncc(-c2cc3[nH]c(-c4ccc(OC(F)(F)F)c(F)c4)nc3c(F)c2F)c(C(F)F)n1 [Compound 90]
5. Cc1nc(CN2CCOCC2)ncc1-c1cc2[nH]c(-c3ccc(C(F)(F)F)cc3)nc2c(F)c1F [Compound 97]
6. Nc1ncc(-c2cc3[nH]c(-c4ccc(C(F)(F)F)cc4)nc3c(F)c2F)c(C(=O)O)n1 [Compound 99]

[9.19, 8.60, 8.00, 9.32, 10.04, 7.38]

###

Assay: in vivo pharmacokinetics in male ICR mice, IV and PO
Parameters: species or system mouse (male ICR mice)
Settings: 1 mg/kg; mouse plasma; IV, 1 mpk; read-out: intravenous injection administration (IV) T1/2 (converted)
experimental_readout: half-life (h)
One number for each entry, in h.

{"columns": ["given_smiles", "half-life / h"],
 "data": [
  ["Cc1nc(N)ncc1-c1cc2nc(-c3ccc(C(F)(F)F)cc3)[nH]c2c(F)c1F", 5.9]
]}

Let us examine a further case.
Param item = "Nc1cc(Cl)c(-c2cc3[nH]c(-c4ccc(C(F)(F)F)cc4)nc3cc2F)cn1" ; retrieve measured half-life.
8.5
